target: T1, Human CD137 ECD (human); experiment: single mutant vs template dBBDu183H
T1 construct: also called 4-1BB
T1 sequence (chain, as listed by the source limits assumed): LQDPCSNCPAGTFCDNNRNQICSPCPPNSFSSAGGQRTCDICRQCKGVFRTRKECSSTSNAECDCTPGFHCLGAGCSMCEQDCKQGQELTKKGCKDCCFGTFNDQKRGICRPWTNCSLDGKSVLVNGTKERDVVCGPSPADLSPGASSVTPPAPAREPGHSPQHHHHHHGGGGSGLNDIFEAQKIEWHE
assayEndpoint: fold change of affinity (fold)
Report the value in fold with no unit label.

INSERT INTO results (binder, observedmeasurement) VALUES
  ('H183/L072 VH G52cD (antibody, name in Kabat numbering, V domains shown) VH: QVQLVESGGGLVQPGRSLRLSCAASGFTFSNAWMHWVRQAPGKGLEWVAQIKDKDNAYAAYYAPSVKGRFTISRDDSKNSIYLQMNSLKTEDTAVYYCHYVHYASASTVLPAFGVDAWGQGTTVTVSS VL: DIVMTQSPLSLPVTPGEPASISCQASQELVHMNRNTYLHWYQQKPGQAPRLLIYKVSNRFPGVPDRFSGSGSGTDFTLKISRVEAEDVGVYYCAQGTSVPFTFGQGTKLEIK', 0.6);

Q: Give the reported value of fold change of affinity for this record: H183/L072 VH Y58E (antibody, name in Kabat numbering, V domains shown) VH: QVQLVESGGGLVQPGRSLRLSCAASGFTFSNAWMHWVRQAPGKGLEWVAQIKDKGNAYAAEYAPSVKGRFTISRDDSKNSIYLQMNSLKTEDTAVYYCHYVHYASASTVLPAFGVDAWGQGTTVTVSS VL: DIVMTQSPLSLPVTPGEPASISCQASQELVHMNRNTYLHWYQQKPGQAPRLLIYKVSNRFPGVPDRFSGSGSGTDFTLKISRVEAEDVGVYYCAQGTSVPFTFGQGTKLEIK
Ans: 0.3

Q: State its fold change of affinity: H183/L072 VH G52cF (antibody, name in Kabat numbering, V domains shown) VH: QVQLVESGGGLVQPGRSLRLSCAASGFTFSNAWMHWVRQAPGKGLEWVAQIKDKFNAYAAYYAPSVKGRFTISRDDSKNSIYLQMNSLKTEDTAVYYCHYVHYASASTVLPAFGVDAWGQGTTVTVSS VL: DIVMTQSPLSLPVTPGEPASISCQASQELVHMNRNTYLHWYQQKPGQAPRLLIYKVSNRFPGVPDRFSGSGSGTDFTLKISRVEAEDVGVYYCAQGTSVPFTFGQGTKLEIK
Ans: 1.7
